Hi there, I'd appreciate the recorded Ki for every entry that follows.
molecular target: rat CB1 receptor (Rattus norvegicus, UniProt P20272); construct: membrane preparations from rat brain; from tissue; host or cells: rat brain membranes; assay: Radioligand competition binding, [3H]CP-55,940, rat brain membranes
Sequence (P20272 whole entry): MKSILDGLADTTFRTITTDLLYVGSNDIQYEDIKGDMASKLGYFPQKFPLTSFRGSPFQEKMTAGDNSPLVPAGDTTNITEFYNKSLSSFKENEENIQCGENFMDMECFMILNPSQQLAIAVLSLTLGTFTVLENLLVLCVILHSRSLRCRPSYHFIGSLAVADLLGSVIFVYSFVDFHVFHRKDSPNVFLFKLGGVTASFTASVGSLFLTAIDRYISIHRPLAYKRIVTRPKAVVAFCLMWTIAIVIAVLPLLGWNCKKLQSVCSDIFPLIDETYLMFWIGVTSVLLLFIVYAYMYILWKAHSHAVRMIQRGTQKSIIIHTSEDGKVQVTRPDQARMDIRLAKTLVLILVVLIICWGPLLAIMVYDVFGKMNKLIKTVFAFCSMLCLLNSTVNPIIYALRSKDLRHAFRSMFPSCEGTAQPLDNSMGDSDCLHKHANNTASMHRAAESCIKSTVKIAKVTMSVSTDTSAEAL
Dear colleague, please return just the value in nM, with no unit written.

Using known records, supply Ki for CCCCCCC(C)(C)c1cc(O)c2c(c1)oc(=O)c1ccc(O)cc12 [Compound 1b, reference compound]
100

Fill in reported Ki for this entry: N#CCCCCCC1(c2cc(O)c3c(c2)oc(=O)c2ccc(O)cc23)CCCC1
640

Fill in reported Ki for this entry: CCCCCCC1(c2cc(O)c3c(c2)oc(=O)c2ccc(O)cc23)CCCC1
266

###

I'd be grateful if you could share measured Ki for these entries.
Target: rat CB1 receptor (Rattus norvegicus, UniProt P20272)
Construct: membrane preparations from rat brain; from tissue; host or cells: rat brain membranes
Assay: Radioligand competition binding, [3H]CP-55,940, rat brain membranes
Conditions: read-out: Ki rCB1
Procedure: Inhibition constant values (Ki) from the respective competition binding curves are listed in Table 1 in which our first generation cannabilactone analog AM1714 is included for comparison. The current data of AM1714 for mCB2 are slightly different when compared to those we published earlier. […] Results from the competition assays were analyzed using nonlinear regression to determine the IC50 values for the ligand [59]; Ki values were calculated from the IC50 (Prism by GraphPad Software, Inc.). […]
// note: answer is a bare numeric in nM

With rat CB1 receptor (Rattus norvegicus, UniProt P20272) as the test system, provide measured Ki for this compound: N#CCCCCC1(c2cc(O)c3c(c2)oc(=O)c2ccc(O)cc23)CCCC1
304

Give the observed Ki of O=c1oc2cc(C3(CCCBr)CCCC3)cc(O)c2c2cc(O)ccc12 for rat CB1 receptor (Rattus norvegicus, UniProt P20272).
405

State, for rat CB1 receptor (Rattus norvegicus, UniProt P20272), measured Ki of the compound listed here: O=c1oc2cc(C3(CCCCBr)CCCC3)cc(O)c2c2cc(O)ccc12
390

###

Field: pKi. Provide a value for each of the compounds that follow.
target: mouse CB2 receptor (Mus musculus, UniProt P47936); construct: expressed in transfected cells; host or cells: HEK293; assay: Radioligand competition binding, [3H]CP-55,940, membranes from HEK293 cells expressing mouse CB2
Sequence (P47936 whole entry): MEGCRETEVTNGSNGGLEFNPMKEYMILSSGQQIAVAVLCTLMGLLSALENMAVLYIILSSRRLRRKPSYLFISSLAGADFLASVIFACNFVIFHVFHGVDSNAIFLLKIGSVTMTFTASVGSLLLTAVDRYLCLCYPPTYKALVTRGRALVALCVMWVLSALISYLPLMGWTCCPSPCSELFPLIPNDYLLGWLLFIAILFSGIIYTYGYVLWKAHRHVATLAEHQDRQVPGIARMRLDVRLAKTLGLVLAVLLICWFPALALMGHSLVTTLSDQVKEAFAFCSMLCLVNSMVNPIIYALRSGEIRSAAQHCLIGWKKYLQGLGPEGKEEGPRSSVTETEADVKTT
Please keep in mind that pKi is minus log10 of the molar concentration; only the number is needed.

Report pKi, nothing else, for this compound: O=c1oc2cc(C3(CCCCBr)CCCC3)cc(O)c2c2cc(O)ccc12
7.68

Indicate the recorded pKi value for this compound: N#CCCCCC1(c2cc(O)c3c(c2)oc(=O)c2ccc(O)cc23)CCCC1
7.93

Please list pKi recorded for the compound O=c1oc2cc(C3(CCCBr)CCCC3)cc(O)c2c2cc(O)ccc12
7.61

Input CC(C)N(C(=O)c1ccc(O)cc1-c1c(O)cc(C2(CCCCBr)CCCC2)cc1O)C(C)C [Compound 23a] , output reported pKi.
7.65

Give the value of pKi reported for the following: CCCCCCC1(c2cc(O)c(-c3cc(O)ccc3C(=O)N(C(C)C)C(C)C)c(O)c2)CCCC1 [Compound 23d]
8.24
